Recorded concentration at 8 h, one value per entry.
# Assay method text: Urine levels of TPPU and metabolites after single oral dose in rats
# Assay type: in vivo
# Recorded conditions: male, Sprague Dawley, 8h post dose, rat, single oral dose 10 mg/kg TPPU, n = 3

- Compound: "CCC(=O)N1CCC(NC(=O)Nc2ccc(OC(F)(F)F)cc2)CC1 [TPPU]"
  Unit abbreviation: "ng/mL"
  concentration at 8 h: 5.7
- Compound: "O=C(Nc1ccc(OC(F)(F)F)cc1)NC1CCN(C(=O)CCO)CC1 [Compound M2]"
  Unit abbreviation: "ng/mL"
  concentration at 8 h: 2.7
- Compound: "CC(O)C(=O)N1CCC(NC(=O)Nc2ccc(OC(F)(F)F)cc2)CC1 (centres unmarked) [Compound M1]"
  Unit abbreviation: "ng/mL"
  concentration at 8 h: 8
- Compound: "O=C(O)CC(=O)N1CCC(NC(=O)Nc2ccc(OC(F)(F)F)cc2)CC1 [Compound M4]"
  Unit abbreviation: "ng/mL"
  concentration at 8 h: 1
- Compound: "O=C(Nc1ccc(OC(F)(F)F)cc1)NC1CCNCC1 [Compound M3]"
  Unit abbreviation: "ng/mL"
  concentration at 8 h: 2.5
